# Experiment: Selectivity index, ratio of IC50 for human CCD 19Lu cells to IC50 for human HepG2 cells
# Type: toxicity
# Particulars: CCD 19Lu cells versus HepG2 cells, read-out: Ratio IC50
Hi, to clarify the labels: Yes covers selectivity ratio from 2 upward, No covers anything below 2.

[
  {
    "Compound": "CC1=C(O)C(=O)C=C2C1=CC=C1[C@@]2(C)CC[C@@]2(C)[C@@H]3C[C@](C)(C(=O)NC(CC(=O)OC(C)(C)C)C(=O)NC(CC(=O)OC(C)(C)C)C(=O)OC(C)(C)C)CC[C@]3(C)CC[C@]12C (some centres not stated)",
    "Qualitative Label": "No"
  },
  {
    "Compound": "CC1=C(O)C(=O)C=C2C1=CC=C1[C@@]2(C)CC[C@@]2(C)[C@@H]3C[C@](C)(C(=O)NC(CCC(=O)N(CC(=O)OC(C)(C)C)C(=O)OC(C)(C)C)C(=O)OC(C)(C)C)CC[C@]3(C)CC[C@]12C (some centres not stated)",
    "Qualitative Label": "Yes"
  },
  {
    "Compound": "CC1=C(O)C(=O)C=C2C1=CC=C1[C@@]2(C)CC[C@@]2(C)[C@@H]3C[C@](C)(C(=O)NC(CC(=O)NC(CCC(=O)OC(C)(C)C)C(=O)OC(C)(C)C)C(=O)OC(C)(C)C)CC[C@]3(C)CC[C@]12C (some centres not stated)",
    "Qualitative Label": "No"
  },
  {
    "Compound": "CC1=C(O)C(=O)C=C2C1=CC=C1[C@@]2(C)CC[C@@]2(C)[C@@H]3C[C@](C)(C(=O)O)CC[C@]3(C)CC[C@]12C [CELASTROL]",
    "Qualitative Label": "No"
  },
  {
    "Compound": "CC1=C(O)C(=O)C=C2C1=CC=C1[C@@]2(C)CC[C@@]2(C)[C@@H]3C[C@](C)(C(=O)NC(CC(=O)OC(C)(C)C)C(=O)NC(CCC(=O)OC(C)(C)C)C(=O)OC(C)(C)C)CC[C@]3(C)CC[C@]12C (some centres not stated)",
    "Qualitative Label": "No"
  },
  {
    "Compound": "CC1=C(O)C(=O)C=C2C1=CC=C1[C@@]2(C)CC[C@@]2(C)[C@@H]3C[C@](C)(C(=O)NC(CCC(=O)NC(CCC(=O)OC(C)(C)C)C(=O)OC(C)(C)C)C(=O)OC(C)(C)C)CC[C@]3(C)CC[C@]12C (some centres not stated)",
    "Qualitative Label": "Yes"
  },
  {
    "Compound": "CC1=C(O)C(=O)C=C2C1=CC=C1[C@@]2(C)CC[C@@]2(C)[C@@H]3C[C@](C)(C(=O)NC(CC(=O)NC(CC(=O)OC(C)(C)C)C(=O)OC(C)(C)C)C(=O)OC(C)(C)C)CC[C@]3(C)CC[C@]12C (some centres not stated)",
    "Qualitative Label": "No"
  }
]

----------
# Tested on: BEAS-2B
# Experiment: Antiproliferative activity against human BEAS-2B cells assessed as inhibition of cell proliferation measured after 72 hrs by MTT assay
# Assay type: functional, cell-based
Listed next: entries and their corresponding log10 of IC50.
Attribute Measured: log10 of IC50 (log10 of the value in nM)

[
  {
    "Molecule": "CC1=C(O)C(=O)C=C2C1=CC=C1[C@@]2(C)CC[C@@]2(C)[C@@H]3C[C@](C)(C(=O)NCCCNC(=O)OC(C)(C)C)CC[C@]3(C)CC[C@]12C",
    "Test Result": 2.76
  },
  {
    "Molecule": "CC1=C(O)C(=O)C=C2C1=CC=C1[C@@]2(C)CC[C@@]2(C)[C@@H]3C[C@](C)(C(=O)NC(CC(=O)OC(C)(C)C)C(=O)NC(CCC(=O)OC(C)(C)C)C(=O)OC(C)(C)C)CC[C@]3(C)CC[C@]12C (some centres not stated)",
    "Test Result": 3.84
  },
  {
    "Molecule": "CC1=C(O)C(=O)C=C2C1=CC=C1[C@@]2(C)CC[C@@]2(C)[C@@H]3C[C@](C)(C(=O)NC(CCC(=O)OC(C)(C)C)C(=O)OC(C)(C)C)CC[C@]3(C)CC[C@]12C (some centres not stated)",
    "Test Result": 2.79
  },
  {
    "Molecule": "COC(=O)CCNC(=O)[C@]1(C)CC[C@]2(C)CC[C@]3(C)C4=CC=C5C(=CC(=O)C(O)=C5C)[C@]4(C)CC[C@@]3(C)[C@@H]2C1",
    "Test Result": 2.51
  },
  {
    "Molecule": "CC1=C(O)C(=O)C=C2C1=CC=C1[C@@]2(C)CC[C@@]2(C)[C@@H]3C[C@](C)(C(=O)NC(CCC(=O)N(CC(=O)OC(C)(C)C)C(=O)OC(C)(C)C)C(=O)OC(C)(C)C)CC[C@]3(C)CC[C@]12C (some centres not stated)",
    "Test Result": 3.12
  },
  {
    "Molecule": "CC1=C(O)C(=O)C=C2C1=CC=C1[C@@]2(C)CC[C@@]2(C)[C@@H]3C[C@](C)(C(=O)NC(CC(=O)NC(CC(=O)OC(C)(C)C)C(=O)OC(C)(C)C)C(=O)OC(C)(C)C)CC[C@]3(C)CC[C@]12C (some centres not stated)",
    "Test Result": 3.34
  },
  {
    "Molecule": "CC1=C(O)C(=O)C=C2C1=CC=C1[C@@]2(C)CC[C@@]2(C)[C@@H]3C[C@](C)(C(=O)NC(CC(=O)NC(CCC(=O)OC(C)(C)C)C(=O)OC(C)(C)C)C(=O)OC(C)(C)C)CC[C@]3(C)CC[C@]12C (some centres not stated)",
    "Test Result": 3.51
  }
]
